target: Deoxycytidine kinase (Rattus norvegicus); test: Irreversible inhibition of Walker 256 rat tumor deoxycytidine kinase by [3H]deoxycytidine binding assay; settings: read-out: I50
Sequence (P48769 whole entry): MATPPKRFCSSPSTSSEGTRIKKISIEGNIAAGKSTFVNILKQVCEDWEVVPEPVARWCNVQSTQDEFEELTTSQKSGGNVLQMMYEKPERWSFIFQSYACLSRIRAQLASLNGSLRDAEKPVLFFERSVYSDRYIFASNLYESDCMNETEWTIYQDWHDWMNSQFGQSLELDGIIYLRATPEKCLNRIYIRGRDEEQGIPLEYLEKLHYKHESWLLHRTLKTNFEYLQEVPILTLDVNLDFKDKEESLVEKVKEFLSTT
result_type: log10 of IC50 (log10 of the value in µM)
All values: log10 IC50 [µM].

Example results:
Using known records, supply log10 of IC50 for "Nc1ccn(CCOc2ccccc2)c(=O)n1"
3.78

# return recorded log10 of IC50 for entry "Nc1ccnc(OCc2ccccc2)n1"
3.78

For the molecule "CCCCCSc1nccc(N)n1" , report log10 of IC50.
3.41

Determine its reported log10 of IC50: "Nc1ccnc(Sc2ccc3ccccc3c2)n1"
2.70

State the recorded log10 of IC50 for every item in the following list.
1. CCCCCCCCOc1nccc(N)n1
2. Nc1ccnc(SCCCCc2ccccc2)n1
3. Nc1ccn(Cc2ccccc2)c(=O)n1
4. Nc1ccn(CCCCc2ccccc2)c(=O)n1
5. Nc1ccnc(Oc2ccc(Cl)cc2)n1
6. Nc1ccn(CCCOc2ccccc2)c(=O)n1
7. CC(C)CCn1ccc(N)nc1=O

[3.00, 3.00, 4.08, 3.00, 3.70, 3.40, 3.70]

Provide the reported log10 of IC50 of each entry below, same order.
1. Nc1ccnc(SCc2ccc(Cl)cc2)n1
2. Nc1ccnc(SCc2ccccc2)n1
3. Nc1ccnc(SCCCOc2ccccc2)n1
4. CCCCCOc1nccc(N)n1
5. Nc1ccn(-c2cccc3ccccc23)c(=O)n1
6. CCCn1ccc(N)nc1=O

[3.00, 3.45, 3.30, 3.85, 3.18, 4.08]
